experiment: Cytotoxicity against HIV-1 3B infected human MT4 cells; assay type: cell-based; details: HIV-1 3B-infected MT4 cells
measuredAttribute: CC50 (µg/mL)
Quick reminder: number only, in µg/mL, skip the unit.

>  <smilesRepr>
CS(=O)(=O)Nc1ccc(NC(=S)NCc2ccccc2)cc1Oc1ccccc1

>  <measureUnit>
µg/mL

>  <CC50>
61.6

$$$$
>  <smilesRepr>
CS(=O)(=O)Nc1ccc(NC(=S)NCCc2ccccc2)cc1Oc1ccccc1

>  <measureUnit>
µg/mL

>  <CC50>
20.8

$$$$
>  <smilesRepr>
CS(=O)(=O)Nc1ccc(NC(=S)NCCc2ccc(Cl)cc2)cc1Oc1ccccc1

>  <measureUnit>
µg/mL

>  <CC50>
14.8

$$$$

Now for another entry.
Input line: Recorded CC50 of CS(=O)(=O)Nc1ccc(NC(=S)Nc2ccc([N+](=O)[O-])cc2)cc1Oc1ccccc1 , please.
Output line: 15.2

====

test: Cytotoxicity against Varicella Zoster Virus infected human […] cells assessed as reduction in cell growth; format: cell-based
# CC50 per record follows
Quick reminder: number only, in µg/mL, skip the unit.

>  <smilesRepr>
CS(=O)(=O)Nc1ccc(NC(=S)NCc2ccccc2)cc1Oc1ccccc1

>  <CC50 (µg/mL)>
45.2

$$$$

Input line: Recorded CC50 of C=CCNC(=S)Nc1ccc(NS(C)(=O)=O)c(Oc2ccccc2)c1 , please.
Output line: 82.4

Input line: Recorded CC50 of Nc1nc2c(ncn2COC(CO)CO)c(=O)[nH]1 , please.
Output line: 190

Input line: Recorded CC50 of CS(=O)(=O)Nc1ccc(NC(=S)NC2CCCCC2)cc1Oc1ccccc1 , please.
Output line: 82.4

Input line: Recorded CC50 of CS(=O)(=O)Nc1ccc(NC(=S)NCCc2ccccc2)cc1Oc1ccccc1 , please.
Output line: 48

Input line: Recorded CC50 of Nc1ccn(C[C@@H](CO)OCP(=O)(O)O)c(=O)n1.O.O , please.
Output line: 244

Input line: Recorded CC50 of CCCNC(=S)Nc1ccc(NS(C)(=O)=O)c(Oc2ccccc2)c1 , please.
Output line: 56

====

test: Cytotoxicity against Cytomegalovirus infected HEL cells assessed as change in cell morphology; type: cell-based; conditions: human
measuredAttribute: CC50

// known answers, use as guide
>  <smilesRepr>
CCNC(=S)Nc1ccc(NS(C)(=O)=O)c(Oc2ccccc2)c1

>  <measured>
> 100 µg/mL

$$$$
>  <smilesRepr>
CCCNC(=S)Nc1ccc(NS(C)(=O)=O)c(Oc2ccccc2)c1

>  <measured>
> 100 µg/mL

$$$$

Input line: Recorded CC50 of C=CCNC(=S)Nc1ccc(NS(C)(=O)=O)c(Oc2ccccc2)c1 , please.
Output line: > 100 µg/mL

Input line: Recorded CC50 of CS(=O)(=O)Nc1ccc(NC(=S)Nc2ccc([N+](=O)[O-])cc2)cc1Oc1ccccc1 , please.
Output line: > 100 µg/mL

====

experiment: Cytotoxicity against african green monkey Vero cells assessed as change in cell morphology; assay type: cell-based; settings: chlorocebus sabaeus
# MCC per record follows

// known answers, use as guide
>  <compound>
CNC(=S)Nc1ccc(NS(C)(=O)=O)c(Oc2ccccc2)c1

>  <measured>
> 100 µg/mL

$$$$
>  <compound>
Nc1ncnc2c1ncn2C[C@H](O)CO [(S)-DHPA]

>  <measured>
> 250 µg/mL

$$$$
>  <compound>
O=c1[nH]c(=O)n([C@H]2C[C@H](O)[C@@H](CO)O2)cc1/C=C/Br

>  <measured>
> 250 µg/mL

$$$$

Now for another entry.
Input line: Recorded MCC of NC(=O)c1ncn([C@@H]2O[C@H](CO)[C@@H](O)[C@H]2O)n1 , please.
Output line: > 250 µg/mL
